Hi there, I'd appreciate the recorded half-life at 1 µM for every entry that follows.
Assay: Half life in human liver microsomes at 1 uM by LC-MS/MS analysis
Details: liver microsomes

Provide half-life at 1 µM values for the following items, in order.
1. CC(C)CCC[C@@H](C)[C@H]1CC[C@H]2[C@H](Nc3ccc(O)cc3)CCC[C@]12C
2. COC(C)(C)CCC[C@@H](C)[C@H]1CC[C@H]2[C@@H](Nc3cccc(O)c3)CCC[C@]12C
3. CC(C)CCC[C@@H](C)[C@H]1CC[C@H]2[C@@H](OC(=O)c3cccc(O)c3)CCC[C@]12C
4. COC(C)(C)CCC[C@@H](C)[C@H]1CC[C@H]2[C@H](CNc3cccc(O)c3)CCC[C@]12C

OUTPUT:
1: > 3.85 h; 2: > 3.85 h; 3: > 3.85 h; 4: 0.717 h

====

Hi there, I'd appreciate the recorded solubility kinetic for every entry that follows.
Test: Kinetic solubility of the compound in pH 4 phosphate buffered saline
Assay type: physicochemical
Details: read-out: Kinetic_solubility
Just so you know, I need the unit written after the number.

Some solved cases for reference:
                           structure_smiles         result
0  CC(C)CCC[C@@H](C)[C@H]1CC[C@H]2[C@@H](NC(=O)c3cccc(O)c3)CCC[C@]12C     0.27 µg/mL
1  COC(C)(C)CCC[C@@H](C)[C@H]1CC[C@H]2[C@H](CNc3cccc(O)c3)CCC[C@]12C     0.06 µg/mL
2  C[C@H](CCCC(C)(C)O)[C@H]1CC[C@H]2[C@@H](OC(=O)c3cccc(O)c3)CCC[C@]12C    0.048 µg/mL
3  CC(C)CCC[C@@H](C)[C@H]1CC[C@H]2[C@H](CNc3ccc(O)cc3)CCC[C@]12C  0.00013 µg/mL
4  CC(C)CCC[C@@H](C)[C@H]1CC[C@H]2[C@@H](Nc3ccc(O)cc3)CCC[C@]12C  0.00062 µg/mL
5  C[C@H](CCCC(C)(C)O)[C@H]1CC[C@H]2[C@@H](Nc3ccc(O)cc3)CCC[C@]12C      2.4 µg/mL
6  CC(C)CCC[C@@H](C)[C@H]1CC[C@H]2[C@H](Nc3ccc(O)cc3)CCC[C@]12C  0.00075 µg/mL
7  COC(C)(C)CCC[C@@H](C)[C@H]1CC[C@H]2[C@@H](Nc3cccc(O)c3)CCC[C@]12C    0.017 µg/mL
8  CC(C)CCC[C@@H](C)[C@H]1CC[C@H]2[C@@H](OC(=O)c3cccc(O)c3)CCC[C@]12C     0.16 µg/mL

We now examine a further compound.
INPUT: Fill in the blank: the reported solubility kinetic of `COC(C)(C)CCC[C@@H](C)[C@H]1CC[C@H]2[C@@H](OC(=O)c3cccc(O)c3)CCC[C@]12C` is ____.
OUTPUT: 0.0027 µg/mL

====

Hi there, I'd appreciate the recorded half-life at 1 µM for every entry that follows.
Test: Half life in human liver microsomes at 1 uM by LC-MS/MS analysis
Details: liver microsomes
Give bare numbers, in min.

>>> print(df.to_string())
                           structure_smiles  recorded_number
0  CC(C)CCC[C@@H](C)[C@H]1CC[C@H]2[C@@H](Nc3ccc(O)cc3)CCC[C@]12C               57

INPUT: Fill in the blank: the reported half-life at 1 µM of `C[C@H](CCCC(C)(C)O)[C@H]1CC[C@H]2[C@@H](OC(=O)c3cccc(O)c3)CCC[C@]12C` is ____.
OUTPUT: 47
